Molecular target: SsOGT C29A C29A (Sulfolobus solfataricus)
Sequence: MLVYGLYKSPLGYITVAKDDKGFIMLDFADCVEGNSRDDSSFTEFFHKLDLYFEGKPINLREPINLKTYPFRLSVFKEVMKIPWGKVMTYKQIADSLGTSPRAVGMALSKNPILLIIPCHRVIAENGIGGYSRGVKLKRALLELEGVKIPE
Assay: competition
Conditions: O6-methylguanine at position 26 of strand 1; EMSA: 0-25 uM protein, 0.2 uM probe, 37 C 10 min, 10 ul, buffer as ref. 17, 8% native PAGE in 1X TBE pH 8.3; competition: BG-VG assay, 50 C under ref. …
property_label: Ki

QUERY: Would you mind telling me what Ki value was observed for GGCAGTAGGCCTAGCATGACAATCTGCATTGGTGATCACGG / CGCTCATCCACAATGCAGATTGTCATGCTAGGCCTACTGCC [ds-Fwdm26] ?
RESULT: 1030 nM

The reported measurements were obtained from paper PMC4605297.
